# ASSAY_PROCEDURE: growth suppression of yeast trafficking mutant, preliminary HTS, modulators of trafficking downstream of Golgi apparatus project, 1536-format plate, OD 615 nm (AID 637); further: test concentration not given here
# RECORDED_CONDITIONS: yeast transport mutant growth, absorbance 615 nm, 18 h; stronger effect = higher value
READOUT_KIND: inhibition (%)
The response must be a number in % with no trailing unit.

>  <COMPOUND>
C#CCN1C(=O)C(O)(CC(=O)c2cc(OC)ccc2OC)c2ccccc21 (stereo not drawn)

>  <READOUT_KIND>
inhibition

>  <MEASUREMENT_UNIT>
%

>  <MEASURED_VALUE>
1.9

$$$$
>  <COMPOUND>
Cc1ccc(S(=O)(=O)NCC(=O)OCN2C(=O)c3ccccc3C2=O)cc1

>  <READOUT_KIND>
inhibition

>  <MEASUREMENT_UNIT>
%

>  <MEASURED_VALUE>
0.16

$$$$
>  <COMPOUND>
Cn1c(-c2ccc(F)cc2)cnc1SCC(=O)Nc1ccccc1N1CCOCC1

>  <READOUT_KIND>
inhibition

>  <MEASUREMENT_UNIT>
%

>  <MEASURED_VALUE>
-4.55

$$$$
>  <COMPOUND>
CCOC(=O)c1cccc(NC(=O)C2CCN(S(=O)(=O)c3cccs3)CC2)c1

>  <READOUT_KIND>
inhibition

>  <MEASUREMENT_UNIT>
%

>  <MEASURED_VALUE>
-3.81

$$$$

// field: inhibition; key: `CN(C)c1ccc(C(=O)OCC(=O)NC2CCCCC2)cc1` ; value = 5.81

// field: inhibition; key: CCOC(=O)CSC1=C(C#N)C(c2ccc(Cl)cc2)C(C(=O)OC)C(=O)N1 (stereo not drawn) ; value = 4.83

// field: inhibition; key: COc1cc2cc(C(c3nnnn3C3CCCC3)N(C)C3CCCCC3)c(=O)[nH]c2cc1OC (stereo not drawn) ; value = -2.13

// field: inhibition; key: O=S(=O)(NCC1CCCO1)c1ccc(S(=O)(=O)N2CCc3ccccc3C2)cc1 (stereo not drawn) ; value = 2.42

// field: inhibition; key: `CCN(CC)CC(=O)Nc1ccc(-c2nc3cc(NC(=O)CN(CC)CC)ccc3o2)cc1` ; value = -9.34

The reported numbers originate from PubChem BioAssay.
